System: HCT-116
Assay: NCI tumour cell line growth inhibition, 48 h
Calls of active or inactive are those of the source. Cut-off read from the data, not from the text of the source: active = GI50 up to about 1.1 µM and inactive = higher.
Possible outcomes: active, inactive

MOLECULE	CAT
N=C(N)N/N=C(\c1ccc(Cl)cc1)C1CC1	inactive
COc1ccc2c3c([nH]c2c1[N+](=O)[O-])C(C)N(C)CC3 (stereo not given)	inactive
CCN(CCO)CCNc1ccc(C)c2sc3ccccc3c(=O)c12	inactive
Cc1cccc2c1Oc1cc(Cl)ccc1C2NC(=O)CCN1CCOCC1 (stereo not given)	inactive
CC1(C)[C@@H]2C[C@H]1C(Cc1cccc(C[C@H]3c4cc(-c5ccccn5)ncc4[C@H]4C[C@@H]3C4(C)C)c1)c1cc(-c3ccccn3)ncc12 (stereo not given in full)	active
